# System: guinea pig tracheal spiral preparations
# assay.notes: Bronchodilation in vitro; guinea pig tracheal spiral preparations
# Format: cell-based
# protocol.conditions: Cavia porcellus; relaxation as percentage of total relaxation by 10^-3 M isoprenaline; cumulative dosing 10^-8 - 2×10^-5 M; 37° C
assay.endpoint: log10 of IC50 (log10 of the value in nM)
For clarity, the numbers are log10 values of IC50 expressed in nM.

Here are 3 molecules together with their reported answers.
1) CC1(C)C=C(n2ccccc2=O)c2cc(C(F)(F)F)ccc2O1 [Example 5]	1.72
2) CC1(C)Oc2ccc(C(F)(F)F)cc2[C@@H](n2ccccc2=O)[C@@H]1O (relative stereo) [Example 4]	2.73
3) CC1(C)Oc2ccncc2[C@@H](n2ccccc2=O)[C@@H]1O (relative stereo) [Example 6]	3.74

Ask: Look up log10 of IC50 for this molecule: CC1(C)C=C(n2ccccc2=O)c2cc(C#N)ccc2O1 [Example 2]
Result: 2.00

Ask: // next record CC1(C)C=C(n2ccccc2=O)c2cnccc2O1 [Example 7]
Result: 3.38

Ask: Then what about the molecule CC1(C)C=C(n2ccc(=O)cc2)c2cc(C#N)ccc2O1 [Example 3] ?
Result: 4.04

Ask: Also need CC1(C)Oc2ccc(C#N)cc2[C@@H](n2ccccc2=O)[C@@H]1O (relative stereo) [Example 1] , thanks.
Result: 2.90

The reported numbers originate from patent US5254557A.
